# TARGET_OR_TEST_SYSTEM: Envelope glycoprotein gp160 (Human immunodeficiency virus 1)
# Sequence (Q6QLK5 whole entry, the tested form may be a part): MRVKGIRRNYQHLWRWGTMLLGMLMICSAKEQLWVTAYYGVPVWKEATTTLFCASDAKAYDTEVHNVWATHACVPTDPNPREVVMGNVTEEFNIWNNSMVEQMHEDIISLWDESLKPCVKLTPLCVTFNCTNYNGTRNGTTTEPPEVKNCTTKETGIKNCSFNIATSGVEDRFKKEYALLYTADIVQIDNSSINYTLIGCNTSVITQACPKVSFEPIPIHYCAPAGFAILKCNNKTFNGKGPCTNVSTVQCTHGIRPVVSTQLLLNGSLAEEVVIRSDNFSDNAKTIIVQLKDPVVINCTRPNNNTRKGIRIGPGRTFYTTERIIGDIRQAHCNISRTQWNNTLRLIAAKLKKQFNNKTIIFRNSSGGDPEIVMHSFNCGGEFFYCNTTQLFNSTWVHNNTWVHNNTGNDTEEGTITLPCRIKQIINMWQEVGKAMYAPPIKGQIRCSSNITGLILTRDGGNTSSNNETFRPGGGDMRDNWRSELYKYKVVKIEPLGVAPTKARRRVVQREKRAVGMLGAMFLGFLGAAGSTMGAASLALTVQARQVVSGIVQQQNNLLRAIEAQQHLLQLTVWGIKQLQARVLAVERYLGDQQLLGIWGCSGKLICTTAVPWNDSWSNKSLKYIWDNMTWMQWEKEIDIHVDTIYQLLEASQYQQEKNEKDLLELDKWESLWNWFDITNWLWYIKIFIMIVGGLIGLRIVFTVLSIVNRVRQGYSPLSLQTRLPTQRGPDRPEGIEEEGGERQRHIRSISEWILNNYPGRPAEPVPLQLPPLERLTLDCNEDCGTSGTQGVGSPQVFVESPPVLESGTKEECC
# METHOD_SUMMARY: cell-free HIV fusion peptide-binding blockers – biochemical, uHTS, fluorescence dequenching, […] (AID 1986)
Calls of active or inactive are those of the source. Cut-off read from the data, not from the text of the source: actives have a measured IC50 and inactives only a lower limit.
PROPERTY_LABEL: IC50

[[record]]
compound_structure_string = "Brc1ccc(N/N=C(/N=Nc2nn[nH]n2)c2ccccc2)cc1"
property_label = "IC50"
value_reported = "29.5 µM (active)"

[[record]]
compound_structure_string = "Cc1noc(NS(=O)(=O)c2ccc(NC(=O)Nc3ccc(Cl)c(Cl)c3)cc2)c1C"
property_label = "IC50"
value_reported = "19.8 µM (active)"

[[record]]
compound_structure_string = "COc1ccc(C(=O)COC(=O)c2ccccc2NS(=O)(=O)c2ccc(O)c([N+](=O)[O-])c2)cc1"
property_label = "IC50"
value_reported = "16.4 µM (active)"

[[record]]
compound_structure_string = "CCc1nnc(NS(=O)(=O)c2ccc(NC(=O)/C=C/c3ccccc3Cl)cc2)s1"
property_label = "IC50"
value_reported = "23.7 µM (active)"

[[record]]
compound_structure_string = "CCOc1cc(/C=C2/C(=N)N3C(=NC2=O)SN=C3S(=O)(=O)C(C)C)ccc1OC(=O)c1ccco1"
property_label = "IC50"
value_reported = "14.8 µM (active)"

[[record]]
compound_structure_string = "N=C1/C(=C\\c2ccc(-c3cccc(C(=O)O)c3)o2)C(=O)N=C2SC=C(c3ccccc3)N12"
property_label = "IC50"
value_reported = "6.64 µM (active)"

[[record]]
compound_structure_string = "CC(C)S(=O)(=O)C1=NSC2=NC(=O)/C(=C\\c3ccc(OC(=O)c4ccco4)cc3)C(=N)N21"
property_label = "IC50"
value_reported = "26.7 µM (active)"

[[record]]
compound_structure_string = "O=C(O)c1cc(NC(=O)c2ccc(Br)cc2)cc(NC(=O)c2ccc(Br)cc2)c1"
property_label = "IC50"
value_reported = "29.4 µM (active)"

